# assayed.system: T1, human CTLA-4 (human, UniProt P16410 36-223)
# T1 construct: whole, on cells
# T1 sequence (P16410 36-223): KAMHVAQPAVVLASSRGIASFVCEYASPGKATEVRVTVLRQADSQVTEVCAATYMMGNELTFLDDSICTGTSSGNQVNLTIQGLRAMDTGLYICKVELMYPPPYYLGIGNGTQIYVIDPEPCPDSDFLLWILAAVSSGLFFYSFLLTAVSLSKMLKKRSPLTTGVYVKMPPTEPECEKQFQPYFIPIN
# test.description: flow cytometry, cells with human CTLA-4; protein from CHO
# Lookup of reported MFI keyed by entry
All answers are understood in MFI, so give the number only.

Looking up ICOSL ECD Truncation #6 with N52H/N57Y/Q100R/C198R (Fc fusion, not shown: a dimerising Fc or GST, Made in CHO cells) DTQEKEVRAMVGSDVELSCACPEGSRFDLNDVYVYWQTSESKTVVTYHIPQHSSLEYVDSRYRNRALMSPAGMLRGDFSLRLFNVTPQDEQKFHCLVLSRSLGFQEVLSVEVTLHVAANFSVPVVSAPHSPSQDELTFTCTSINGYPRPNVYWINKTDNSLLDQALQNDTVFLNMRGLYDVVSVLRIARTPSVNIGCRIENVLL , I found its MFI recorded as 236000

Looking up ICOSL ECD Truncation #7 with N52H/N57Y/Q100R/C198R and E90K/E111G (Fc fusion, not shown: a dimerising Fc or GST, Made in CHO cells) DTQEKEVRAMVGSDVELSCACPEGSRFDLNDVYVYWQTSESKTVVTYHIPQHSSLEYVDSRYRNRALMSPAGMLRGDFSLRLFNVTPQDKQKFHCLVLSRSLGFQEVLSVGVTLHVAANFSVPVVSAPHSPSQDELTFTCTSINGYPRPNVYWINKTDNSLLDQALQNDTVFLNMRGLYDVVSVLRIARTPSVNIGCRIEN , I found its MFI recorded as 83700

Looking up ICOSL ECD with N52H/N57Y/Q100R/C198R (Table 18) (Fc fusion, not shown: a dimerising Fc or GST, Made in CHO cells; May be the same construct as m37) DTQEKEVRAMVGSDVELSCACPEGSRFDLNDVYVYWQTSESKTVVTYHIPQHSSLEYVDSRYRNRALMSPAGMLRGDFSLRLFNVTPQDEQKFHCLVLSRSLGFQEVLSVEVTLHVAANFSVPVVSAPHSPSQDELTFTCTSINGYPRPNVYWINKTDNSLLDQALQNDTVFLNMRGLYDVVSVLRIARTPSVNIGCRIENVLLQQNLTVGSQTGNDIGERDKITENPVSTGEKNAAT , I found its MFI recorded as 133000

The record that follows has no MFI shown yet.
Looking up ICOSL ECD Truncation #5 with N52H/N57Y/Q100R/C198R (Fc fusion, not shown: a dimerising Fc or GST, Made in CHO cells) DTQEKEVRAMVGSDVELSCACPEGSRFDLNDVYVYWQTSESKTVVTYHIPQHSSLEYVDSRYRNRALMSPAGMLRGDFSLRLFNVTPQDEQKFHCLVLSRSLGFQEVLSVEVTLHVAANFSVPVVSAPHSPSQDELTFTCTSINGYPRPNVYWINKTDNSLLDQALQNDTVFLNMRGLYDVVSVLRIARTPSVNIGCRIENVLLQQ , I found its MFI recorded as 216000
